These entries and their values trace back to ChEMBL document CHEMBL1132348.

assay: Inhibitory activity against HIV-I mediated H9 cells fusion.; type: functional, cell-based, Human immunodeficiency virus 1
Please go through the items and note down their IC50.

Batch request: IC50 per item, same order as input.
1. C=C[C@H]1CN2CC[C@H]1C[C@@H]2[C@@H](OC(=O)c1ccc(OC)cc1)c1ccnc2ccccc12
2. O=C(Nc1ccc(Cl)c(Cl)c1)O/N=C(/c1ccccc1)c1ccc(-c2ccccc2)cc1
3. C/C(=N/OC(=O)NS(=O)(=O)c1ccc(C)cc1)c1cc2ccccc2oc1=O
4. Cc1ccc(/N=N/c2c(S(=O)(=O)O)cc3cc(S(=O)(=O)O)cc(Nc4nc(Cl)nc(N(C)c5ccccc5)n4)c3c2O)c(S(=O)(=O)O)c1
5. Cc1ccc(N(C(=O)Nc2cccc(Cl)c2)C(C)c2nc(O)c3ccccc3n2)c(C)c1 (stereo not drawn)
6. O=C(Nc1cc([N+](=O)[O-])ccc1-c1ccc([N+](=O)[O-])cc1)c1ccc([N+](=O)[O-])cc1Cl

Output line:
1. > 100 µg/mL
2. > 100 µg/mL
3. > 100 µg/mL
4. 21.85 µg/mL
5. > 100 µg/mL
6. > 100 µg/mL

Batch request: IC50 per item, same order as input.
1. CC[C@H]1CN2CC[C@H]1C[C@@H]2[C@@H](OC(=O)c1ccccc1Cl)c1ccnc2ccc(OC)cc12
2. Cc1ccc(C(=O)Nc2cccc(C(=O)N/N=C/c3ccc(Br)cc3)c2)cc1

Output line:
59.78 µg/mL
> 100 µg/mL

---

Please go through the items and note down their log10 CC50.
test system: MT-2 cells (Homo sapiens); assay: In vitro for the cytotoxicity in MT-2 cells.
Friendly reminder: values = log10 of CC50, unit µg/mL.

Sample records with log10 CC50:
compound	log10 CC50
Cc1ccc(N(C(=O)Nc2ccc(Cl)c(Cl)c2)C(C)c2nc(O)c3ccccc3n2)c(C)c1 (stereo not given)	1.59
O=P(CCP(c1ccccc1)c1ccccc1)(c1ccccc1)c1ccccc1	1.46
CC(c1nc2ccc(Cl)cc2c(=O)n1Cc1ccccc1)N(C(=O)c1ccc([N+](=O)[O-])cc1)c1ccc(F)cc1 (stereo not given)	1.48
COc1ccc(S(=O)(=O)O)cc1/N=N/c1c(S(=O)(=O)O)cc2cc(Nc3nc(Nc4ccccc4)nc(Nc4cc(C)c(/N=N/c5cc(S(=O)(=O)O)cc6cc(S(=O)(=O)O)cc(O)c56)cc4OC)n3)ccc2c1O	2.47
Cc1ccc(N(C(=O)Nc2cccc(Cl)c2)C(C)c2nc(O)c3ccccc3n2)c(C)c1 (stereo not given)	1.73

Batch request: log10 CC50 per item, same order as input.
1. C=C[C@H]1CN2CC[C@H]1C[C@@H]2[C@@H](OC(=O)c1ccc(OC)cc1)c1ccnc2ccccc12
2. O=C(Nc1cc([N+](=O)[O-])ccc1-c1ccc([N+](=O)[O-])cc1)c1ccc([N+](=O)[O-])cc1Cl
3. Cc1ccc(C(=O)Nc2cccc(C(=O)N/N=C/c3ccc(Br)cc3)c2)cc1
4. C/C(=N/OC(=O)NS(=O)(=O)c1ccc(C)cc1)c1cc2ccccc2oc1=O
5. Cc1ccc(/N=N/c2c(S(=O)(=O)O)cc3cc(S(=O)(=O)O)cc(Nc4nc(Cl)nc(N(C)c5ccccc5)n4)c3c2O)c(S(=O)(=O)O)c1
6. COc1ccc2c(c1)CCCC2=NOC(=O)Nc1ccccc1-c1ccccc1
7. Cc1ccc(N(C(=O)Nc2ccccc2)C(C)c2nc(O)c3ccccc3n2)c(C)c1 (stereo not given)
8. CC(Nc1ccccc1Cl)c1nc2ccccc2c(=O)n1Cc1ccccc1 (stereo not given)

Output line:
[1.87, 1.67, 1.40, 2.46, 2.46, 1.67, 1.61, 1.94]

Batch request: log10 CC50 per item, same order as input.
1. O=C(Nc1ccc(Cl)c(Cl)c1)O/N=C(/c1ccccc1)c1ccc(-c2ccccc2)cc1
2. CC[C@H]1CN2CC[C@H]1C[C@@H]2[C@@H](OC(=O)c1ccccc1Cl)c1ccnc2ccc(OC)cc12

Output line:
1.87
1.62
